# Tested on: SH-SY5Y
# Protocol details: Neuroprotective activity against H2O2-induced neurotoxicity in human SH-SY5Y cells assessed as cell survival at 10 uM incubated for 2 hrs before H2O2 challenge measured after 24 hrs by MTT assay
# Type: functional
# Assay context: Homo sapiens, SH-SY5Y; read-out: Activity
The threshold is 60%. Values of viability at 10 µM beneath it are tagged yes; values meeting or exceeding it are tagged no.

Compound | System under test | Group
COc1cc2c(c(OC)c1OC)-c1c(cc3c(c1OC)OCO3)[C@H](O)[C@H](C)[C@H](C)[C@H]2OC(C)=O | SH-SY5Y | yes
COc1cc2c(c(OC)c1OC)-c1c(cc3c(c1OC)OCO3)[C@H](O)[C@H](C)[C@H](C)C2 | SH-SY5Y | yes
COc1cc2c(c(OC)c1OC)-c1c(cc3c(c1OC)OCO3)[C@H](OC(C)=O)[C@H](C)[C@H](C)C2 (stereo in doubt; 1) | SH-SY5Y | yes
COc1cc2c(c(OC)c1OC)-c1c(cc3c(c1OC)OCO3)[C@H](OC(=O)c1ccccc1)[C@H](C)[C@H](C)[C@H]2OC(C)=O | SH-SY5Y | no
COc1cc2c(c(OC)c1OC)-c1c(cc3c(c1OC)OCO3)[C@H](OC(=O)C(C)C)[C@H](C)[C@H](C)[C@H]2OC(C)=O | SH-SY5Y | no
C/C=C(\C)C(=O)O[C@H]1c2cc(OC)c(OC)c(OC)c2-c2c(cc3c(c2OC)OCO3)[C@H](O)[C@H](C)[C@@H]1C | SH-SY5Y | no
CCC(C)C(=O)O[C@H]1c2cc3c(c(OC)c2-c2c(cc(OC)c(OC)c2OC)[C@H](OC(C)=O)[C@@H](C)[C@H]1C)OCO3 (some centres not stated) | SH-SY5Y | yes
C/C=C(/C)C(=O)O[C@H]1c2cc(OC)c(OC)c(OC)c2-c2c(cc3c(c2OC)OCO3)[C@H](OC(=O)C(C)C)[C@H](C)[C@@H]1C | SH-SY5Y | no
C/C=C(\C)C(=O)O[C@H]1c2cc(OC)c(OC)c(OC)c2-c2c(cc3c(c2OC)OCO3)[C@H](OC(C)=O)[C@H](C)[C@@H]1C | SH-SY5Y | no
C/C=C(/C)C(=O)O[C@H]1c2cc(OC)c(OC)c(OC)c2-c2c(cc3c(c2OC)OCO3)[C@H](OC(=O)CCC)[C@H](C)[C@@H]1C | SH-SY5Y | no
CCC(=O)O[C@H]1c2cc3c(c(OC)c2-c2c(cc(OC)c(OC)c2OC)[C@H](OC(C)=O)[C@@H](C)[C@H]1C)OCO3 | SH-SY5Y | yes

Origin of values: ChEMBL document CHEMBL1781894
